Test system: Plasmodium berghei
test summary: Screen against P. berghei liver stage (PbLuc), transformed with Luciferase, at 10uM
Assay type: functional, HepG2
test parameters: tested at 10 uM
In all, about 69,000 compounds went through this assay and about 8,600 (12%) showed an effect of 50% or more. The sample as a whole holds a higher share of strong results than the screen did.
measured property: INHIBITION (%)
Numeric only. Scale: %

Worked examples follow.
What does the record list as INHIBITION for COc1c(CNC2CCc3c(Cl)cccc32)c(C)nn1C (stereo not drawn) ?
36.3

Would you kindly share the measured INHIBITION for c1ccc(-c2cc(CN3CCCC(Cn4cncn4)C3)on2)cc1 (stereo not drawn) ?
11.6

Data request, read-out INHIBITION, for CCn1cc(NC(=O)NCCc2ccc3c(c2)OCO3)cn1
-23.9

***
// returns reported INHIBITION for input CC1=CC[C@@H]2CN(C(=O)c3ccc(-c4nc[nH]n4)cc3)C[C@@H]2C1
40.7

Need INHIBITION of CCN(Cc1ccccc1C)S(C)(=O)=O , thanks.
5.15

Entry under review: Cc1sc2nc(C(F)(F)F)nc(N3CCN(C)CC3)c2c1C . Reported INHIBITION?
65.8

# get_value(readout='INHIBITION', item= Cc1nc(CN2CCc3nc(NC(C)C)nc(C)c3C2)cs1 )
46.7

---

Tested on: Plasmodium berghei
test summary: Screen against P. berghei liver stage (PbLuc), transformed with Luciferase, at 10uM
Type: functional, HepG2
test parameters: tested at 10 uM
In all, about 69,000 compounds went through this assay and about 8,600 (12%) showed an effect of 50% or more. Many of the other results were omitted from the sample, so strong results are more common in it than they were.
The label is condition met for INHIBITION below 30% and condition not met for INHIBITION equal to or exceeding 30%.

API: query returns whether the compound falls strictly under 30% in INHIBITION. Query: Cn1cc(CN2C[C@@H]3COC[C@]3(CNC(=O)c3ccco3)C2)cn1
condition not met

API: query returns whether the compound falls strictly under 30% in INHIBITION. Query: COc1cc(CNc2cnn(CCN3CCOCC3)c2)cc(OC)c1
condition met

Quick check: INHIBITION of N#Cc1ccc(CNc2cnn(CCN3CCOCC3)c2)cc1 under 30%?
condition met

Is 30% strictly greater than the compound's reported INHIBITION? compound: CN(CCC#N)C(=O)CCOc1cccc(F)c1
condition met

Further cases:
# strict comparison: is reported INHIBITION < 30%? input = O=C(NC[C@]12COC[C@H]1CN(Cc1ccncc1)C2)c1ccco1
condition met

Identify whether the compound Cc1ncsc1CN1C[C@@H]2COC[C@]2(CNC(=O)c2ccco2)C1 records INHIBITION below 30%.
condition met

Is it true that INHIBITION reported for Clc1ccc(CNc2cnn(CCN3CCOCC3)c2)cc1Cl is less than 30%?
condition not met

Consider the compound Cc1nc2c(c(=O)[nH]1)CCN(Cc1ccc3c(c1)CCCN3C)C2 . Is its INHIBITION strictly less than 30%?
condition not met

Determine if O=c1[nH]c(N2CC(O)C2)nc2c1cnn2-c1ccccc1 shows INHIBITION strictly lower than 30%.
condition met

---

Tested on: Plasmodium berghei
test summary: Screen against P. berghei liver stage (PbLuc), transformed with Luciferase, at 10uM
Type: functional, HepG2
test parameters: tested at 10 uM
The campaign covered roughly 69,000 compounds. About 8,600 (12%) showed an effect of 50% or more. The sample holds strong results, similar compounds and a random draw of the others, so the mix is not that of the screen.
Classify as follows. Reported INHIBITION greater than or equal to 10%: 1.0. Reported INHIBITION below: 0.0.

The examples below pair each entry with its known result.
Does INHIBITION meet or surpass 10% for C=C(C)COc1cccc(C(=O)N2CCC(O)(c3ccccc3)CC2)c1 ?
1.0

Could you please find out whether Cc1nc(C2CCCN(C(=O)c3ccnc(N(C)C)c3)C2)no1 (stereo unspecified) has INHIBITION that meets 10% or exceeds it?
0.0

// inclusive: INHIBITION at least 10%? input: C=C(C)COc1cccc(C(=O)N2CCC3(CCOCC3)CC2)c1
1.0

For this compound, is measured INHIBITION 10% or higher? CC(C)(O)CCc1cccc(C(=O)N2CCC3(CCOCC3)CC2)c1
0.0

Given the entry O=C(NCc1ccco1)[C@@H]1CC[C@@H]2[C@@H](CCN2CC2CC2)O1 , answer whether its INHIBITION meets or surpasses 10%.
1.0

Now consider the entry below.
Please check the record Cc1nn(C)c2c(N(C)Cc3ccco3)nc(C3CC3)nc12 and state if its INHIBITION is at or above 10%.
1.0

The measured values listed here are drawn from ChEMBL document CHEMBL4513216.
